The reported numbers originate from PubChem BioAssay.

Assay: PSAC antagonists in infected red cells, primary screen, cell-based, P. falciparum Indochina, OD700, 2 h (AID 1155);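 note: lysis reports solute entry through the parasite surface anion channel PSAC; channel blockers reduce lysis of infected cells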
Settings: P. falciparum Indochina infected erythrocytes, osmotic lysis OD700; higher = more signal, called active from +8 up or from −8 down
The source made the active and inactive calls.
Measurement Type: z-score

As a guide, the following entries are already answered.
CC(C)OC(=O)C=C1C[C@@H](c2ccc(C#N)cc2)O[C@@H](c2ccc(C#N)cc2)O1 :: 0.848 (inactive)
CC(C)[C@@H](OCc1ccccc1)[C@H](C)C=NOC[C@@H](C)[C@H](OCc1ccccc1)C(C)C :: 0.369 (inactive)
COc1ccc(O[C@H]2C=C[C@@H](c3ccccc3)O[C@@H]2COC(=O)N2CCCCC2)cc1 :: -0.213 (inactive)
COc1ccc(O[C@H]2C=C[C@@H](c3ccccc3)O[C@@H]2CON=C[C@@H](C)[C@H](OCc2ccccc2)C(C)C)cc1 :: 0.98 (inactive)
CC(=O)OC[C@H]1O[C@H](CC=NOC[C@@H](C)[C@H](OCc2ccccc2)C(C)C)C=C[C@@H]1OC(C)=O :: 0.766 (inactive)

Please state, for each entry, its recorded z-score.
1. CC1CC/C=C\[C@H]2OC34C=CCN(C(C)C)C(=O)[C@H]3N(CCCO)C(=O)[C@@H]4C2C(=O)O1 (stereo partly drawn)
2. COC(=O)CC=C[C@@H](C)[C@H](OC)c1ccccc1Br
3. O=C1[C@H]2[C@H]3[C@H](O)[C@H](O)CC(=NOCc4ccccc4)[C@@H]3CC[C@H]2C(=O)N1Cc1ccccc1

A.
1: -0.0331 (inactive); 2: 0.716 (inactive); 3: 0.321 (inactive)

----------
Assay: binders of probe aHhip on microarray, primary screen, stem cell growth factor project, biochemical, small-molecule microarray, fluorescence 635/667 (AID 1087);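 note: score merges spot fluorescence at 667nm with spot signal to noise ratio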
Details: higher = more signal
Label 1 when composite z-score is at or above -0.1; anything below gets -1.

Please review the entries below; each comes with its answer.
C/C=C\[C@@H](NCc1ccccc1Br)[C@@H](O)Cc1ccccc1 :: -1
CCOC(=O)CCN1C(=O)[C@H]2[C@H]3[C@H](O)[C@H](O)CC(=NNC(=O)OCc4ccc(OC)cc4)[C@@H]3CC[C@H]2C1=O :: 1
COc1ccc(O[C@H]2C=C[C@@H](c3ccccc3)O[C@@H]2COC(=O)CCC(C)=NOC(C)CN2CCCCc3nc(C)c(C)cc32)cc1 (some centres undefined) :: -1
COC(=O)CC=C[C@H](C)[C@H](CO)NS(=O)(=O)c1ccc(C)cc1 :: -1
CC(C)NC(=O)[C@@H]1c2ccccc2C(=O)N(CC23CC4CC(CC(C4)C2)C3)[C@H]1c1ccc(CO)cc1 :: -1
C=CCOC(=O)[C@H]1[C@@H]2C(=O)O[C@@H](c3ccccc3)[C@@H](c3ccccc3)N2[C@@H](c2ccc(OCCOC(=O)[C@H]3C[C@H]4C(=O)N5CCC[C@H]5C(=O)N4[C@H]3c3cccc(OCCO)c3)cc2)[C@]12C(=O)Nc1ccc(I)cc12 :: 1

Q. Check if composite z-score >= -0.1 (inclusive). Item: `O=C1[C@H]2[C@H]3[C@H](O)[C@H](O)CC(=NOC[C@@H](O)COCc4ccco4)[C@H]3CC[C@H]2C(=O)N1C1CCCCC1`
A. -1

Q. Try the molecule CN1C(=O)C2C=CC(C(O)c3ccc(Br)cc3)N(N(c3ccccc3)c3ccccc3)C2C1=O (centres undefined)
A. 1

Q. How about `COCCCNC(=O)[C@@]1(Sc2ccc(C)cc2)CC(=O)N(Cc2ccccc2)[C@@H]1c1ccc(CO)cc1I` ?
A. 1

Q. # repeat for `C#CCCCON=C1C[C@@H](O)[C@@H](O)[C@@H]2[C@@H]3C(=O)N(CCC(=O)OCC)C(=O)[C@@H]3CC[C@@H]12`
A. -1

Q. Similarly, `C#CCCCON=C1C[C@@H](O)[C@@H](O)[C@@H]2[C@@H]3C(=O)N(c4cccc(Oc5ccccc5)c4)C(=O)[C@@H]3CC[C@@H]12` ?
A. -1

Q. Follow-up item: `CCc1cccc(NC(=O)O[C@H]2[C@H](OC(=O)Nc3ccc4c(c3)OCO4)[C@@H](OC(=O)Nc3ccc4c(c3)OCO4)[C@@H](OC)O[C@@H]2CO)c1`
A. -1
